Data credit: ChEMBL document CHEMBL4190272

Tested on: HEY
protocol.text: Cytotoxicity against human HEY cells up to 10 uM after 48 hrs by MTT assay
Type: functional, cell-based
The source made the active and inactive calls. The calls are words filed in the database; no cut-off is given here.

compound	Activity
CCc1oc(=O)cc2c1[C@@H](O)[C@H]1OC(=O)[C@@]3(C)[C@@H](O)[C@H]4O[C@H]4[C@@]2(C)[C@@H]13	inactive
CC(O)c1oc(=O)cc2c1C[C@H]1OC(=O)[C@@]3(C)CC[C@@H](O)[C@@]2(C)[C@@H]13 (stereo partly drawn)	inactive
CC(O)c1oc(=O)cc2c1C[C@H]1OC(=O)[C@@]3(C)[C@@H](O)[C@@H](O)[C@H](Cl)[C@@]2(C)[C@@H]13 (stereo partly drawn)	inactive

---

System: A2780
protocol.text: cells
stated.conditions: Homo sapiens, A2780, 48 h
Description: Cytotoxicity against human A2780 cells after 48 hrs by MTT assay
Kindly state IC50 for each of the entries shown.
Give bare numbers, in nM.

line.notation	measured.target	uom	recorded.number
CCc1oc(=O)cc2c1C[C@H]1OC(=O)[C@@]3(C)CC[C@@H](O)[C@@]2(C)[C@@H]13	A2780	nM	3800

Entry CC(=O)O[C@H]1C(=O)[C@@]2(C)[C@H]([C@H](OC(=O)c3ccccc3)[C@]3(O)C[C@H](OC(=O)[C@H](O)[C@@H](NC(=O)c4ccccc4)c4ccccc4)C(C)=C1C3(C)C)[C@]1(OC(C)=O)CO[C@@H]1C[C@@H]2O , A2780 data, IC50 value: 164
